Would you kindly list one-nucleolus phenotype percent effect for each of these sequences?
# Tested on: MCF10A
# assay_method_text: one-nucleolus phenotype percent effect (relative to siNT 0% and siNOL11 100%); higher = more cells with one nucleolus (ribosome biogenesis inhibition)
# test_settings: 20 nM; 72 h
Your answer is read as %, so omit the unit and give the number.

Report one-nucleolus phenotype percent effect under test system MCF10A for UUGGAAUAGGGGAUAUCUCAGC [hsa-miR-6505-5p] . 29.1

Name the recorded one-nucleolus phenotype percent effect of AAGCCUCUGUCCCCACCCCAG [hsa-miR-6819-3p] , assay system MCF10A. -17.6

Recall the reported one-nucleolus phenotype percent effect of AGAAUUGUGGCUGGACAUCUGU [hsa-miR-219-2-3p] on MCF10A and write it down. 35.6

Answer with one-nucleolus phenotype percent effect of GAGACUGGGGUGGGGCC [hsa-miR-4463] measured for MCF10A. -14.3

Tell me its one-nucleolus phenotype percent effect on MCF10A: GUGAGGACUCGGGAGGUGG [hsa-miR-1224-5p] 16.9

Report its one-nucleolus phenotype percent effect with MCF10A as the test system: UUCCUAUGCAUAUACUUCUUUG [hsa-miR-202-5p] -12.4

System MCF10A. Read-out one-nucleolus phenotype percent effect. Item AGCUCUAGAAAGAUUGUUGACC [hsa-miR-6502-5p] . Report value. -17.4

Provide one-nucleolus phenotype percent effect, recorded with MCF10A, of AGGAAACAGGGACCCA [hsa-miR-4261] 37.1

// fetch one-nucleolus phenotype percent effect; item: UAGGAGGGAAUAGUAAAAGCAG [hsa-miR-4779] ; system: MCF10A 54.7

Quote MCF10A one-nucleolus phenotype percent effect for entry AGCAGAAGCAGGGAGGUUCUCCCA [hsa-miR-298] . 17.9

Fill in: one-nucleolus phenotype percent effect on MCF10A, entry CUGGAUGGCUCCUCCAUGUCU [hsa-miR-432-3p] 62

Under MCF10A, report one-nucleolus phenotype percent effect for UCUUCUCUGUUUUGGCCAUGUG [hsa-miR-942] -0.685

System MCF10A. Read-out one-nucleolus phenotype percent effect. Item GAAAACGACAAUGACUUUUGCA [hsa-miR-548ad] . Report value. -29.2

Give MCF10A one-nucleolus phenotype percent effect for the following sequence: ACCCUUUUUCUCUUUCCCAG [hsa-miR-6832-3p] -12.4

State measured one-nucleolus phenotype percent effect of the sequence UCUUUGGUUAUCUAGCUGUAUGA [hsa-miR-9-5p] with MCF10A. 20.5

Tell me one-nucleolus phenotype percent effect of CUGUGGGCUCAGCGCGUGGGG [hsa-miR-4322] when tested on MCF10A. 28.2

Please report the measured one-nucleolus phenotype percent effect for UCCUGCGCGUCCCAGAUGCCC [hsa-miR-1539] tested on MCF10A. 15.6

// output one-nucleolus phenotype percent effect; input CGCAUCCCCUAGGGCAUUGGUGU [hsa-miR-324-5p] ; system MCF10A -15.6

Tell me its one-nucleolus phenotype percent effect on MCF10A: ACUUAAACGUGGAUGUACUUGCU [hsa-miR-302a-5p] -19

Tell me its one-nucleolus phenotype percent effect on MCF10A: ACAGGAGUGGGGGUGGGACAU [hsa-miR-4433-3p] 6.34

Using MCF10A as the test system, report measured one-nucleolus phenotype percent effect of CAGCACCCUGUGGCUCCCACAG [hsa-miR-6871-3p] . -5.35

State one-nucleolus phenotype percent effect (MCF10A) of UCAAUCACUUGGUAAUUGCUGU [hsa-miR-4705] . -19.5

State one-nucleolus phenotype percent effect on MCF10A. Entry: CAGAGUGACAAGCUGGUUAAAG [hsa-miR-5586-3p] -14.6

Fill in: one-nucleolus phenotype percent effect on MCF10A, entry UUUCUUCUUAGACAUGGCAACG [hsa-miR-4659a-3p] -9.58

Give measured one-nucleolus phenotype percent effect for UUCCAUGCCUCCUAGAAGUUCC [hsa-miR-5581-3p] (MCF10A). -19.3

Quote one-nucleolus phenotype percent effect with test system MCF10A for CCUGAUCCCACAGCCCACCU [hsa-miR-3151-3p] -1.47

Please report one-nucleolus phenotype percent effect with MCF10A for item UGAGAUGACACUGUAGCU [hsa-miR-4770] . 11.7

State one-nucleolus phenotype percent effect (MCF10A) of UUUAAGCAGGAAAUAGAAUUUA [hsa-miR-4503] . -6.55

Find the measured one-nucleolus phenotype percent effect of AGGCGCACCCGACCACAUGC [hsa-miR-6722-5p] with MCF10A as test system. 26.5

Determine reported one-nucleolus phenotype percent effect for UCUGGCCAGCUACGUCCCCA [hsa-miR-3190-5p] ; test system: MCF10A. -10.2

Param request: one-nucleolus phenotype percent effect | system MCF10A | item CAGAGAAUUGUUUAAUC [hsa-miR-3123] -40.8

Report measured one-nucleolus phenotype percent effect on MCF10A; entry: UGCUCAGGUUGCACAGCUGGGA [hsa-miR-3934-3p] 9.77

Using MCF10A as the test system, report measured one-nucleolus phenotype percent effect of UUAAUGCUAAUCGUGAUAGGGGU [hsa-miR-155-5p] . 8.74

Retrieve one-nucleolus phenotype percent effect on MCF10A; query UGCUGGGGGCCACAUGAGUGUG [hsa-miR-4731-5p] 40.3

Tell me its one-nucleolus phenotype percent effect on MCF10A: AGGGGGGCACUGCGCAAGCAAAGCC [hsa-miR-6885-5p] 16.6

Output reported one-nucleolus phenotype percent effect of the sequence ACAGUAGUCUGCACAUUGGUUA [hsa-miR-199a-3p] on MCF10A. -13.9

Supply one-nucleolus phenotype percent effect measured with MCF10A for UGCCUGUCUACACUUGCUGUGC [hsa-miR-214-5p] . 93.5

Param request: one-nucleolus phenotype percent effect | system MCF10A | item UCUCUGCUCUGCUCUCCCCAG [hsa-miR-6728-3p] -7.63

Would you please give the reported one-nucleolus phenotype percent effect of UAACGCAUAAUAUGGACAUGU [hsa-miR-3912] with MCF10A? -23.9

###

# Test system: MCF10A
# assay_method_text: one-nucleolus phenotype percent effect (relative to siNT 0% and siNOL11 100%); higher = more cells with one nucleolus (ribosome biogenesis inhibition)
# test_settings: 20 nM; 72 h
readout_name: one-nucleolus phenotype percent effect
Returns: string containing the number followed by the unit.

Let me know recorded one-nucleolus phenotype percent effect for CCUCCUGCCCUCCUUGCUGU [hsa-miR-1976] , thanks. 7.39%

Give the value of one-nucleolus phenotype percent effect reported for the following: UCCAUUACACUACCCUGCCUCU [hsa-miR-885-5p] -5.62%

Kindly indicate its recorded one-nucleolus phenotype percent effect. Item: CCUCCCUGCCCGCCUCUCUGCAG [hsa-miR-7113-3p] -20.6%

Identify one-nucleolus phenotype percent effect associated with the sequence GGGUGCGGGCCGGCGGGG [hsa-miR-4466] -13.2%

Kindly indicate its recorded one-nucleolus phenotype percent effect. Item: AAUGUGGAAGUGGUCUGAGGCAU [hsa-miR-4657] 10.1%

Give me measured one-nucleolus phenotype percent effect, please, for this sequence: CUCCUAUAUGAUGCCUUUCUUC [hsa-miR-337-3p] -11%

Look up and state reported one-nucleolus phenotype percent effect for CCUCAGAUCAGAGCCUUGC [hsa-miR-4330] -32.8%

// fetch one-nucleolus phenotype percent effect given entry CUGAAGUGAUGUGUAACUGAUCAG [hsa-miR-573] -6.66%

Annotate the sequence GCUGGGAUUACAGGCAUGAGCC [hsa-miR-619-5p] with its measured one-nucleolus phenotype percent effect. -9.05%

Give one-nucleolus phenotype percent effect for UGUGAUAUCAUGGUUCCUGGGA [hsa-miR-3689a-5p] 6.87%

Kindly indicate its recorded one-nucleolus phenotype percent effect. Item: GUGCAAAAGUCAUCACGGUU [hsa-miR-548aw] -0.384%

Tell me its one-nucleolus phenotype percent effect given CUCUGAUCGCCCUCUCAGCUC [hsa-miR-3192-3p] as the entry. 57.6%

Give one-nucleolus phenotype percent effect for UAUAUAUACAGCCAUGCACUC [hsa-miR-5011-5p] -18.5%

Please supply the value of reported one-nucleolus phenotype percent effect for the item AGGGAGGGACGGGGGCUGUGC [hsa-miR-149-3p] 42.9%

Consider the sequence UUGUCUCUUGUUCCUCACACAG [hsa-miR-6818-3p] and give its recorded one-nucleolus phenotype percent effect. -11.1%

Given the sequence GAUUGAGACUAGUAGGGCUAGGC [hsa-miR-4461] , write its reported one-nucleolus phenotype percent effect. 3.4%

Tell me its one-nucleolus phenotype percent effect given GUUGGGACAAGAGGACGGUCUU [hsa-miR-3122] as the entry. -20.5%

Please report one-nucleolus phenotype percent effect for the following sequence: AUCAAAUAAGGACUAGUCUGCA [hsa-miR-3671] -10.1%

Supply recorded one-nucleolus phenotype percent effect for UUCUCUUUCUUUAGCCUUGUGU [hsa-miR-4753-3p] here. 27.3%

Determine its reported one-nucleolus phenotype percent effect: CUGGGGUUCUGAGACAGACAGU [hsa-miR-3170] 40.9%

Consider the sequence GCUGCACCGGAGACUGGGUAA [hsa-miR-3130-3p] . State its measured one-nucleolus phenotype percent effect. -5.32%

Could you please provide reported one-nucleolus phenotype percent effect for CAGGGCAGAGGGCACAGGAAUCUGA [hsa-miR-6735-5p] ? Thanks! 11.3%

Hello, please tell me recorded one-nucleolus phenotype percent effect for this one: CUCCGUUUGCCUGUUUCGCUG [hsa-miR-1468] -8.9%

For the sequence CCUGAGAAAAGGGCCAA [hsa-miR-4251] , give its measured one-nucleolus phenotype percent effect value. 15.3%

State its one-nucleolus phenotype percent effect: AGUGGAUGAUGGAGACUCGGUAC [hsa-miR-3691-5p] 34.9%

State its one-nucleolus phenotype percent effect for this sequence: UGUGGAAGGUAGACGGCCAGAGA [hsa-miR-3190-3p] 42.7%

Supply recorded one-nucleolus phenotype percent effect for UCCAGCUCGGUGGCAC [hsa-miR-4267] here. -0.0012%

Answer with the recorded one-nucleolus phenotype percent effect for the sequence listed here: CUGAUAAGAACAGAGGCCCAGAU [hsa-miR-3161] 18.2%

State its one-nucleolus phenotype percent effect for this sequence: UCUCAGUAAGUGGCACUCUGU [hsa-miR-4797-3p] 57.2%

Tell us which one-nucleolus phenotype percent effect value is on record for GACUGACACCUCUUUGGGUGAA [hsa-miR-888-3p] -18.1%

Recall and state the measured one-nucleolus phenotype percent effect for UGCAAAAGUAAUUGCAGUUUUUG [hsa-miR-548x-5p] . -9.86%

Consider the sequence GUGUCUGCUUCCUGUGGGA [hsa-miR-632] . State its measured one-nucleolus phenotype percent effect. 31.3%

Fill in one-nucleolus phenotype percent effect for record GGCCUUGUUCCUGUCCCCA [hsa-miR-4312] 56%

Answer with the recorded one-nucleolus phenotype percent effect for the sequence listed here: GGGGGGAUGUGCAUGCUGGUU [hsa-miR-4525] 22.7%

Write down one-nucleolus phenotype percent effect measured for item CCUGAGCCCGGGCCGCGCAG [hsa-miR-1199-5p] -24.2%

Read off the recorded one-nucleolus phenotype percent effect for UCCGAGCCUGGGUCUCCCUCUU [hsa-miR-615-3p] -6.23%

Please list one-nucleolus phenotype percent effect recorded for the sequence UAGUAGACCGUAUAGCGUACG [hsa-miR-411-5p] -6.18%
